- MEASUREMENT CONDITIONS: 293.15 K; 101.33 kPa; Crystal; gas displacement
MEASUREMENT LABEL: mass density (kg/m3)

>>> observed("CC[N+](CC)(CC)CC.F[P-](F)(F)(F)(F)F [tetraethylammonium hexafluorophosphate]")
1440
>>> observed("CC[N+](CC)(CC)CC.F[B-](F)(F)F [tetraethylammonium tetrafluoroborate]")
1220
>>> observed("CCCCCC[N+](CC)(CC)CC.F[B-](F)(F)F [N,N,N-triethyl-N-hexylammonium tetrafluoroborate]")
1094
>>> observed("CCCCCCCC[N+](CC)(CC)CC.F[B-](F)(F)F [N,N,N-triethyl-N-octylammonium tetrafluoroborate]")
1065
>>> observed("CCCCCC[N+](CC)(CC)CC.[F][Sb-]([F])([F])([F])([F])[F] [N,N,N-triethyl-N-hexylammonium hexafluoroantimonate]")
1488
>>> observed("CCCC[N+](CC)(CC)CC.F[P-](F)(F)(F)(F)F [N,N,N-triethyl-N-butylammonium hexafluorophosphate]")
1366
>>> observed("CCCCCC[N+](CC)(CC)CC.F[P-](F)(F)(F)(F)F [N,N,N-triethyl-N-hexylammonium hexafluorophosphate]")
1351
